Target: zif268 DBD R18D (DE) (UniProt P08046 331-420, R349D)
Assay: EMSA (Scatchard x QuMFRA); derived; 30 mM Tris-HCl pH 8.0, 50 mM NaCl, 0.1 mg/ml BSA, 3 mM DTT, 20 uM ZnSO4, 5 ug/ml poly(dI-dC), 1 h on ice; 10% polyacrylamide gel

Binder	Ka
Zif_1 (CG) (dsDNA) DNA 1: TCGAGGTCGACGGTATCGCGTGGGCGCTCCACTAGTTCTAGAGCGGCCGCCAC DNA 2: GTGGCGGCCGCTCTAGAACTAGTGGAGCGCCCACGCGATACCGTCGACCTCGA	2.5 10^6 M-1
Zif_5 (AA) (dsDNA) DNA 1: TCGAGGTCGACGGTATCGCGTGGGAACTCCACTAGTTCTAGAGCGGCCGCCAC DNA 2: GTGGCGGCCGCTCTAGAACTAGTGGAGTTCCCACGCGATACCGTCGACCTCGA	3.7 10^6 M-1
Zif_6 (AC) (dsDNA) DNA 1: TCGAGGTCGACGGTATCGCGTGGGACCTCCACTAGTTCTAGAGCGGCCGCCAC DNA 2: GTGGCGGCCGCTCTAGAACTAGTGGAGGTCCCACGCGATACCGTCGACCTCGA	5.5 10^6 M-1
Zif_4 (AG) (dsDNA) DNA 1: TCGAGGTCGACGGTATCGCGTGGGAGCTCCACTAGTTCTAGAGCGGCCGCCAC DNA 2: GTGGCGGCCGCTCTAGAACTAGTGGAGCTCCCACGCGATACCGTCGACCTCGA	3.6 10^6 M-1
Zif_2 (CA) (dsDNA) DNA 1: TCGAGGTCGACGGTATCGCGTGGGCACTCCACTAGTTCTAGAGCGGCCGCCAC DNA 2: GTGGCGGCCGCTCTAGAACTAGTGGAGTGCCCACGCGATACCGTCGACCTCGA	2.8 10^6 M-1
